Could you please report measured combination Emax for the items listed next?
tested on: HCC1428 (Breast Carcinoma); assay: combination Emax (second highest fraction inhibited in the dose matrix, 72 h); higher = more inhibition; extreme values may be limits of the assay

GET /value?item= Cc1c2c(nn1C)CSCc1cc(n(C)n1)CSc1cc(c3ccccc3c1)OCCCc1c(C(=O)O)n(C)c3c-2c(Cl)ccc13 [AZD5991] + Cc1cc2ncnn2cc1Nc1ncc2c(n1)n(C1CCOCC1)c(=O)n2C [AZD7648] (first compound max 1 µM, 7x7, partner max 10 µM) &field=combination Emax returns 0.977

GET /value?item= NC1(C(=O)N[C@@H](CCO)c2ccc(Cl)cc2)CCN(c2ncnc3[nH]ccc23)CC1 [Capivasertib] + CC(=O)c1c(C)c2cnc(Nc3ccc(N4CCNCC4)cn3)nc2n(C2CCCC2)c1=O [Palbociclib] (first compound max 10 µM, 7x7, partner max 10 µM) &field=combination Emax returns 0.18

GET /value?item= NC1(C(=O)N[C@@H](CCO)c2ccc(Cl)cc2)CCN(c2ncnc3[nH]ccc23)CC1 [Capivasertib] + CC(C)n1c(=O)n(C)c2cnc3cc(F)c(-c4ccc(OCCCN5CCCCC5)nc4)cc3c21 [AZD1390] (first compound max 10 µM, 7x7, partner max 0.3 µM) &field=combination Emax returns 0.186

GET /value?item= C[C@@H]1COCCN1c1cc(C2([S@](C)(=N)=O)CC2)nc(-c2ccnc3[nH]ccc23)n1 [AZD6738] + O=C(c1cc(Cc2n[nH]c(=O)c3ccccc23)ccc1F)N1CCN(C(=O)C2CC2)CC1 [Olaparib] (first compound max 10 µM, 7x7, partner max 10 µM) &field=combination Emax returns 0.261

---

system: huH-1 (Hepatocellular Carcinoma); assay: Bliss excess, mean over the matrix (fraction); higher = more synergy
observation-type: Bliss excess

Reported Bliss excess (huH-1 (Hepatocellular Carcinoma)) for entry COc1cc2c(cc1OCCCCCOc1cc3c(cc1OC)C(=O)N1C=C(C)C[C@H]1C=N3)N=C[C@@H]1CC(C)=CN1C2=O [SG3199] + O=C(c1cc(Cc2n[nH]c(=O)c3ccccc23)ccc1F)N1CCN(C(=O)C2CC2)CC1 [Olaparib] (first compound max 0.001 µM, 7x7, partner max 10 µM) is -0.0278

Reported Bliss excess (huH-1 (Hepatocellular Carcinoma)) for entry COc1cccc(OCCCN)c1-c1cc(Nc2cnc(C#N)cn2)n[nH]1 [Prexasertib] + C[C@@H]1COCCN1C2=NC(=NC(=C2)C3(CC3)[S@](=N)(=O)C)C4=C5C=CNC5=NC=C4 [AZD6738] (first compound max 1 µM, 7x7, partner max 10 µM) is -0.0716

Reported Bliss excess (huH-1 (Hepatocellular Carcinoma)) for entry NC1(C(=O)N[C@@H](CCO)c2ccc(Cl)cc2)CCN(c2ncnc3[nH]ccc23)CC1 [Capivasertib] + CC(=O)c1c(C)c2cnc(Nc3ccc(N4CCNCC4)cn3)nc2n(C2CCCC2)c1=O [Palbociclib] (first compound max 10 µM, 7x7, partner max 10 µM) is -0.0462

Reported Bliss excess (huH-1 (Hepatocellular Carcinoma)) for entry CCN(CCO)CCCOc1ccc2c(Nc3cc(CC(=O)Nc4cccc(F)c4)[nH]n3)ncnc2c1 [AZD2811] + C=CCn1c(=O)c2cnc(Nc3ccc(N4CCN(C)CC4)cc3)nc2n1-c1cccc(C(C)(C)O)n1 [AZD1775] (first compound max 1 µM, partner max 1 µM) is -0.0176

---

tested on: Jurkat (T-Lymphoblastic Leukemia); test: Bliss excess, mean over the matrix (fraction); higher = more synergy
observation-type: Bliss excess
Write no unit; give the number alone.

GET /value?item= NC1(C(=O)N[C@@H](CCO)c2ccc(Cl)cc2)CCN(c2ncnc3[nH]ccc23)CC1 [Capivasertib] + CC(=O)c1c(C)c2cnc(Nc3ccc(N4CCNCC4)cn3)nc2n(C2CCCC2)c1=O [Palbociclib] (first compound max 10 µM, 7x7, partner max 10 µM) &field=Bliss excess returns 0.0314

GET /value?item= CC(=O)c1c(C)c2cnc(Nc3ccc(N4CCNCC4)cn3)nc2n(C2CCCC2)c1=O [Palbociclib] + CN(CC[C@H](CSC1=CC=CC=C1)NC2=C(C=C(C=C2)S(=O)(=O)NC(=O)C3=CC=C(C=C3)N4CCC(CC4)[C@H](C5=CC=CC=C5C6=CC=C(C=C6)Cl)O)S(=O)(=O)C(F)(F)F)CCO [AZD4320] (first compound max 10 µM, 7x7, partner max 1 µM) &field=Bliss excess returns -0.0316

GET /value?item= COc1cc2ncnc(Nc3ccc(F)c(Cl)c3)c2cc1OCCCN1CCOCC1 [Gefitinib] + CC(C)n1c(=O)n(C)c2cnc3cc(F)c(-c4ccc(OCCCN5CCCCC5)nc4)cc3c21 [AZD1390] (first compound max 10 µM, 7x7, partner max 0.3 µM) &field=Bliss excess returns -0.0756

---

system: A101D (Melanoma); assay: Bliss excess, mean over the matrix (fraction); higher = more synergy
Bliss excess below -0.06 gives false (0); Bliss excess at or above it gives true (1).

Ask | Record CN(CCO)CC[C@H](CSc1ccccc1)Nc1ccc(S(=O)(=O)NC(=O)c2ccc(N3CCC([C@@H](O)c4ccccc4-c4ccc(Cl)cc4)CC3)cc2)cc1S(=O)(=O)C(F)(F)F [AZD4320] + C=CCn1c(=O)c2cnc(Nc3ccc(N4CCN(C)CC4)cc3)nc2n1-c1cccc(C(C)(C)O)n1 [AZD1775] (first compound max 1 µM, partner max 1 µM) ; criterion: Bliss excess no lower than -0.06. Met?
Reply | true (1)

Ask | Record CS(=O)(=O)CCNCc1ccc(-c2ccc3ncnc(Nc4ccc(OCc5cccc(F)c5)c(Cl)c4)c3c2)o1 [Lapatinib] + NC1(c2ccc(-c3nc4ccn5c(=O)[nH]nc5c4cc3-c3ccccc3)cc2)CCC1 [MK-2206] (first compound max 10 µM, 7x7, partner max 10 µM) ; criterion: Bliss excess no lower than -0.06. Met?
Reply | false (0)

Ask | Record CCc1c2c(nc3ccc(O)cc13)-c1cc3c(c(=O)n1C2)COC(=O)[C@]3(O)CC [SN-38] + CN(C)CCCOc1ccc(-c2ccc3ncc4c(c3c2)n(C2CCOCC2)c(=O)n4C)cn1 [AZD0156] (first compound max 0.3 µM, 7x7, partner max 1 µM) ; criterion: Bliss excess no lower than -0.06. Met?
Reply | true (1)

Ask | Record CCN(CCO)CCCOc1ccc2c(Nc3cc(CC(=O)Nc4cccc(F)c4)[nH]n3)ncnc2c1 [AZD2811] + C[C@@H]1COCCN1C2=NC(=NC(=C2)C3(CC3)[S@](=N)(=O)C)C4=C5C=CNC5=NC=C4 [AZD6738] (first compound max 1 µM, 7x7, partner max 10 µM) ; criterion: Bliss excess no lower than -0.06. Met?
Reply | true (1)

Ask | Record Cn1cnc2c(F)c(Nc3ccc(Br)cc3Cl)c(C(=O)NOCCO)cc21 [Selumetinib] + C=CCn1c(=O)c2cnc(Nc3ccc(N4CCN(C)CC4)cc3)nc2n1-c1cccc(C(C)(C)O)n1 [AZD1775] (first compound max 10 µM, partner max 1 µM) ; criterion: Bliss excess no lower than -0.06. Met?
Reply | false (0)

Ask | Record COc1nnc2ccc(N3CCC(c4ccc(OCCN5CCN(C)C(=O)[C@H]5C)cc4)CC3)nn12 [AZD5153] + Cc1c2c(nn1C)CSCc1cc(n(C)n1)CSc1cc(c3ccccc3c1)OCCCc1c(C(=O)O)n(C)c3c-2c(Cl)ccc13 [AZD5991] (first compound max 1 µM, 7x7, partner max 1 µM) ; criterion: Bliss excess no lower than -0.06. Met?
Reply | true (1)

---

test system: huH-1 (Hepatocellular Carcinoma); test: combination Emax (second highest fraction inhibited in the dose matrix, 72 h); higher = more inhibition; extreme values may be limits of the assay
Could you please report measured combination Emax for the items listed next?
Write no unit; give the number alone.

Reported combination Emax (huH-1 (Hepatocellular Carcinoma)) for entry Cc1c2c(nn1C)CSCc1cc(n(C)n1)CSc1cc(c3ccccc3c1)OCCCc1c(C(=O)O)n(C)c3c-2c(Cl)ccc13 [AZD5991] + CCN(CCO)CCCOc1ccc2c(Nc3cc(CC(=O)Nc4cccc(F)c4)[nH]n3)ncnc2c1 [AZD2811] (first compound max 1 µM, 7x7, partner max 1 µM) is 0.387

Reported combination Emax (huH-1 (Hepatocellular Carcinoma)) for entry Cc1c2c(nn1C)CSCc1cc(n(C)n1)CSc1cc(c3ccccc3c1)OCCCc1c(C(=O)O)n(C)c3c-2c(Cl)ccc13 [AZD5991] + C=CCn1c(=O)c2cnc(Nc3ccc(N4CCN(C)CC4)cc3)nc2n1-c1cccc(C(C)(C)O)n1 [AZD1775] (first compound max 1 µM, partner max 1 µM) is 0.552

Reported combination Emax (huH-1 (Hepatocellular Carcinoma)) for entry C[C@@H](c1ccc2nccn2c1)n1nnc2ncc(-c3cnn(C)c3)nc21 [Savolitinib] + CN(CC[C@H](CSC1=CC=CC=C1)NC2=C(C=C(C=C2)S(=O)(=O)NC(=O)C3=CC=C(C=C3)N4CCC(CC4)[C@H](C5=CC=CC=C5C6=CC=C(C=C6)Cl)O)S(=O)(=O)C(F)(F)F)CCO [AZD4320] (first compound max 1 µM, 7x7, partner max 1 µM) is 0.202

Reported combination Emax (huH-1 (Hepatocellular Carcinoma)) for entry CC1(C)CCC(CN2CCN(c3ccc(C(=O)NS(=O)(=O)c4ccc(NCC5CCOCC5)c([N+](=O)[O-])c4)c(Oc4cnc5[nH]ccc5c4)c3)CC2)=C(c2ccc(Cl)cc2)C1 [Venetoclax] + C=CCn1c(=O)c2cnc(Nc3ccc(N4CCN(C)CC4)cc3)nc2n1-c1cccc(C(C)(C)O)n1 [AZD1775] (first compound max 1 µM, partner max 1 µM) is 0.501

Reported combination Emax (huH-1 (Hepatocellular Carcinoma)) for entry COc1cccc(OCCCN)c1-c1cc(Nc2cnc(C#N)cn2)n[nH]1 [Prexasertib] + C=CCn1c(=O)c2cnc(Nc3ccc(N4CCN(C)CC4)cc3)nc2n1-c1cccc(C(C)(C)O)n1 [AZD1775] (first compound max 1 µM, partner max 1 µM) is 0.811

Reported combination Emax (huH-1 (Hepatocellular Carcinoma)) for entry Cn1cnc2c(F)c(Nc3ccc(Br)cc3Cl)c(C(=O)NOCCO)cc21 [Selumetinib] + CC(C)n1c(=O)n(C)c2cnc3cc(F)c(-c4ccc(OCCCN5CCCCC5)nc4)cc3c21 [AZD1390] (first compound max 10 µM, 7x7, partner max 0.3 µM) is 0.107

Reported combination Emax (huH-1 (Hepatocellular Carcinoma)) for entry CN(CCO)CC[C@H](CSc1ccccc1)Nc1ccc(S(=O)(=O)NC(=O)c2ccc(N3CCC([C@@H](O)c4ccccc4-c4ccc(Cl)cc4)CC3)cc2)cc1S(=O)(=O)C(F)(F)F [AZD4320] + C=CCn1c(=O)c2cnc(Nc3ccc(N4CCN(C)CC4)cc3)nc2n1-c1cccc(C(C)(C)O)n1 [AZD1775] (first compound max 1 µM, partner max 1 µM) is 0.613
